# measured target: KDR (Homo sapiens, UniProt P35968)
# Sequence (P35968 20-1356, species assumed): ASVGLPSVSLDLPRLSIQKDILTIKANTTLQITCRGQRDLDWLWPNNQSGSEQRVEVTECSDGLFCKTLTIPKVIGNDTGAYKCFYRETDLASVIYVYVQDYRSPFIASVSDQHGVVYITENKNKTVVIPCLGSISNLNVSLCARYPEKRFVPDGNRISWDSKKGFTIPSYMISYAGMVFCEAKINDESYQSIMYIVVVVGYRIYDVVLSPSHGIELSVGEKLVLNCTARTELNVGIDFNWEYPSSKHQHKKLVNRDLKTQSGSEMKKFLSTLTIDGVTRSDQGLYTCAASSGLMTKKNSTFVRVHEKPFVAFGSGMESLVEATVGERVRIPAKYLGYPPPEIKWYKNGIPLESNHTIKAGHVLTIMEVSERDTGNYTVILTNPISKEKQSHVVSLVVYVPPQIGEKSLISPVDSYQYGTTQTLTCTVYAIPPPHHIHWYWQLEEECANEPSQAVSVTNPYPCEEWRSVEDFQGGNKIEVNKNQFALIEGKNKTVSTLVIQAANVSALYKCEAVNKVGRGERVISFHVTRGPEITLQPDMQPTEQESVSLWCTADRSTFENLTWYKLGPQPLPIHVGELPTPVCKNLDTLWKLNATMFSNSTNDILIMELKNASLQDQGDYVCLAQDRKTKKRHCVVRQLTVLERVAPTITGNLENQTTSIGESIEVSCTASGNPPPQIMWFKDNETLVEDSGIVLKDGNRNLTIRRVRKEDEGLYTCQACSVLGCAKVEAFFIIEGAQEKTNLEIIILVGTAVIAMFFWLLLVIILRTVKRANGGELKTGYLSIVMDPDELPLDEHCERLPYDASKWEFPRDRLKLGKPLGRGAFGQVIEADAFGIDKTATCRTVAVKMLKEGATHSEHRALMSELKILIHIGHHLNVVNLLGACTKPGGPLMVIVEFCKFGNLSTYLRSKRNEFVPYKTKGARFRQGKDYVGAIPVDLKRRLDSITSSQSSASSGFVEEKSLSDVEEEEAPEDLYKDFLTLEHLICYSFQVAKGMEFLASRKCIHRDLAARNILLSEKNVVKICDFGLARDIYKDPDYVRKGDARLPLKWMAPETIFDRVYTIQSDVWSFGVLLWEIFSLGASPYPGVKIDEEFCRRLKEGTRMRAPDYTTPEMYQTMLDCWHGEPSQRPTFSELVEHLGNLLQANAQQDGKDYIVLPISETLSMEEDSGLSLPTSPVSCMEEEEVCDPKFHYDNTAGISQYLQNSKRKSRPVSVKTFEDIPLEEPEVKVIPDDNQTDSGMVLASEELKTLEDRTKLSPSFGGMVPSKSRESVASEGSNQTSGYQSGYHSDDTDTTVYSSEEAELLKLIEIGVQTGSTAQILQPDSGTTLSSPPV
pIC50: −log10 of the molar value.

compound: CCOC(=O)N=S(C)(=O)c1ccc2cc1NCCCCNc1nc(ncc1Br)N2 (racemic) [Example 1]
pIC50: 7.21

compound: CCCS(=O)(=O)N=S(C)(=O)c1ccc2cc1NCCCCNc1nc(ncc1Br)N2 (racemic) [Example 7]
pIC50: 8.15

compound: C[Si](C)(C)CCS(=O)(=O)N=S(C)(=O)c1ccc2cc1OCCCCNc1nc(ncc1Br)N2 (racemic) [Example 9]
pIC50: 7.22

###

# measured target: Aurora-A (Homo sapiens, UniProt O14965)
# Sequence (O14965 whole entry): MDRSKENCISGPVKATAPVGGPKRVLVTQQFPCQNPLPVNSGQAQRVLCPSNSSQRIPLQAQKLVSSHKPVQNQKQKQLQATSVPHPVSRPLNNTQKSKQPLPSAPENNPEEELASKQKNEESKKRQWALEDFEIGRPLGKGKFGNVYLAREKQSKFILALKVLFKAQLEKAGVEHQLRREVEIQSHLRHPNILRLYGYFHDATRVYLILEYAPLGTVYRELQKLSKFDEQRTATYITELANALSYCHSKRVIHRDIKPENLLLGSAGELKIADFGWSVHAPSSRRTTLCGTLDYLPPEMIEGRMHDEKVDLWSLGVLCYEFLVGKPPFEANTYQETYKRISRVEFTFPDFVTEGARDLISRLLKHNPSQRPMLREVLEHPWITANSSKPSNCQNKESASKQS
pIC50: −log10 of the molar value.
Catalogue of pIC50 values

compound: C[Si](C)(C)CCS(=O)(=O)N=S(C)(=O)c1ccc2cc1NCCCCNc1nc(ncc1Br)N2 (racemic) [Example 5]
measured target: Aurora-A (Homo sapiens, UniProt O14965)
pIC50: 6.07
--
compound: CCOC(=O)N=S(C)(=O)c1ccc2cc1NCCCCNc1nc(ncc1I)N2 (racemic) [Example 4]
measured target: Aurora-A (Homo sapiens, UniProt O14965)
pIC50: 7.51
--
compound: CCNC(=O)N=S(C)(=O)c1ccc2cc1NCCCCNc1nc(ncc1Br)N2 (racemic) [Example 6]
measured target: Aurora-A (Homo sapiens, UniProt O14965)
pIC50: 7.68
--
compound: CCOC(=O)N=S(C)(=O)c1ccc2cc1NCCCCNc1nc(ncc1Br)N2 (single isomer, unassigned) [Example 3]
measured target: Aurora-A (Homo sapiens, UniProt O14965)
pIC50: 7.11
--
compound: C[Si](C)(C)CCS(=O)(=O)N=S(C)(=O)c1ccc2cc1OCCCCNc1nc(ncc1Br)N2 (racemic) [Example 9]
measured target: Aurora-A (Homo sapiens, UniProt O14965)
pIC50: 6.19
